assay: Cmax in male C57BL/6 mouse at 10 mg/kg, po measured after 24 hrs by UPLC/MS/MS analysis; format: ADME, organism-based; settings: in vivo
MEASUREMENT TYPE: Cmax (nM)

Check out these entries, answers already filled in.
COMPOUND: CO[C@@H]1[C@@H](n2cc(-c3ccc(Cl)c(F)c3F)nn2)[C@@H](O)[C@@H](CO)O[C@H]1c1nncn1-c1cc(Cl)ccc1OC(F)(F)F
Cmax [nM]: 3000
//
COMPOUND: OC[C@H]1O[C@H](Sc2ccc(Cl)c(Cl)c2)[C@H](O)[C@@H](n2cc(-c3cc(F)c(F)c(F)c3)nn2)[C@H]1O
Cmax [nM]: 6300

1. OC[C@H]1O[C@@H](c2ncnn2-c2ccc(Cl)c(Cl)c2)[C@H](O)[C@@H](n2cc(-c3cc(F)c(F)c(F)c3)nn2)[C@H]1O
2. Cn1nc([C@@H]2O[C@H](CO)[C@H](O)[C@H](n3cc(-c4ccc(Br)c(F)c4F)nn3)[C@H]2O)n(-c2cc(Cl)ccc2C(F)(F)F)c1=S (stereo in doubt; 20)
Identify the entry with the smaller Cmax: 1 or 2 . # respond with the chosen item's label 1
(1: 410 nM, 2: 1900 nM)
